biological target: NDM-1 (Klebsiella pneumoniae, UniProt C7C422); experiment: biochemical; type: biochemical; conditions: NDM-1 IC50, 300 μM imipenem, 10 mM HEPES pH 7.5, 25 °C; average of at least two independent assays
Sequence (C7C422 29-270, looked up, species assumed): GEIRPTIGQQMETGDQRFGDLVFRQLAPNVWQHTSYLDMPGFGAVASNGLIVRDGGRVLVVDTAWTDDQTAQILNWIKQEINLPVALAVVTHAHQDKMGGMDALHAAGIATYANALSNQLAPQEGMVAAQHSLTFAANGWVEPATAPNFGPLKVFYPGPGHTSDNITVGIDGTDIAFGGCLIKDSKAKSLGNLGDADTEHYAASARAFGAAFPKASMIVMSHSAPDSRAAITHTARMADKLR
Consider the following compounds; for each one, report its pIC50.
Lab note — pIC50 values are minus log10 of concentrations in M.

[Q] Using the record for O=C(O)c1ncccc1NS(=O)(=O)Cc1ccc(Cl)cc1Cl , report its pIC50.
[A] 4.09

[Q] Report pIC50 for O=C(O)c1ccccn1 [Compound 1, pyridine-2-carboxylic acid, reference compound] please.
[A] 4.77

[Q] What value of measured pIC50 is listed for O=C(O)c1ncccc1NS(=O)(=O)Cc1ccccc1Cl ?
[A] 4.49

[Q] Data request, read-out pIC50, for O=C(O)c1ncsc1NS(=O)(=O)Cc1ccc(Cl)cc1Cl
[A] 5.68

###

System: VIM-1-producing strain Klebsiella pneumoniae NTBC055
Experiment: Whole-cell meropenem potentiation, CLSI broth microdilution MIC
Type: cell-based
Conditions: inhibitor present at 100 μM; K. pneumoniae NTBC055 (VIM-1); meropenem alone 16 μg/mL
Description: Minimal inhibitory concentrations (MIC) were determined using the Clinical Laboratory Standards Institute (CLSI) broth microdilution procedure. MBL-positive Enterobacteriaceae clinical isolates tested in the susceptibility study included NDM-1-producing strain E. coli NTBC121, VIM-1-producing strain K. pneumoniae NTBC055, and IMP-1-producing strain K. pneumoniae NTBC062. (Individual MICs for all strains tested are presented in Table 2 and Table 1 in the Supporting Information).
measured_property: MICMEM (meropenem MIC in presence of inhibitor) vs NTBC055

[Q] Given the entry O=C(O)c1ncccc1NS(=O)(=O)Cc1cccc(C(F)(F)F)c1 , report its measured MICMEM (meropenem MIC in presence of inhibitor) vs NTBC055.
[A] 2 mg/L

[Q] Fill in: MICMEM (meropenem MIC in presence of inhibitor) vs NTBC055 of O=C(O)c1ncccc1NS(=O)(=O)c1ccccc1 [Compound 61] is ___
[A] 4 mg/L

[Q] GET /values?readout=MICMEM (meropenem MIC in presence of inhibitor) vs NTBC055&item= O=C(O)c1ncccc1NS(=O)(=O)Cc1ccccc1Cl
[A] 0.5 mg/L

[Q] May I ask what MICMEM (meropenem MIC in presence of inhibitor) vs NTBC055 has been recorded for O=C(O)c1ncsc1NS(=O)(=O)c1ccccc1 ?
[A] 0.5 mg/L

[Q] Consider the compound shown here: O=C(O)c1ncsc1NS(=O)(=O)Cc1ccc(Cl)cc1Cl What is its recorded MICMEM (meropenem MIC in presence of inhibitor) vs NTBC055?
[A] 0.5 mg/L

[Q] Name the recorded MICMEM (meropenem MIC in presence of inhibitor) vs NTBC055 for O=C(O)c1ncsc1NS(=O)(=O)Cc1ccccc1 .
[A] 0.5 mg/L

[Q] Record request: MICMEM (meropenem MIC in presence of inhibitor) vs NTBC055 value, item N#Cc1cccc(CS(=O)(=O)Nc2cccnc2C(=O)O)c1
[A] 2 mg/L

[Q] Any idea what its MICMEM (meropenem MIC in presence of inhibitor) vs NTBC055 is? The compound is N#Cc1cccc(CS(=O)(=O)Nc2scnc2C(=O)O)c1
[A] 0.5 mg/L

[Q] Can you share its MICMEM (meropenem MIC in presence of inhibitor) vs NTBC055? I mean this compound: O=C(O)c1ncsc1NS(=O)(=O)Cc1cc(Cl)cc(Cl)c1
[A] 0.5 mg/L

[Q] Which MICMEM (meropenem MIC in presence of inhibitor) vs NTBC055 is listed for O=C(O)c1ncsc1NS(=O)(=O)Cc1ccccc1Cl ?
[A] 0.25 mg/L

###

biological target: IMP-1 (Serratia marcescens); assay: biochemical; format: biochemical; conditions: tested up to 200 μM
Sequence (P52699 19-246, looked up, species assumed): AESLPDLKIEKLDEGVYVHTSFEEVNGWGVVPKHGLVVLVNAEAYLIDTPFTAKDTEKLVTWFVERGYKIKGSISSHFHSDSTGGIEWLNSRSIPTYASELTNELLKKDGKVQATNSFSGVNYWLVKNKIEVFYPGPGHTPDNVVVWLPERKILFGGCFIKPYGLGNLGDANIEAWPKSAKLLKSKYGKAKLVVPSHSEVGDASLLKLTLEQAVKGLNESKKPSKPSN
measured_property: inhibition of IMP-1, in words

Look over these answered cases.
O=C(O)c1cc2ccccc2cn1 [Compound 11] = no inhibition
O=C(O)c1cccnn1 [Compound 10] = no detectable inhibition
O=C(O)c1ccc2ccccc2n1 [Compound 7] = no inhibition
O=C(O)c1cnccn1 [Compound 9] = no detectable inhibition

[Q] Would you kindly share the measured inhibition of IMP-1, in words for Cn1cnc(C(=O)O)c1 [Compound 8] ?
[A] no detectable inhibition

###

test system: VIM-1-producing strain Klebsiella pneumoniae NTBC055; assay: Whole-cell meropenem potentiation, CLSI broth microdilution MIC; format: cell-based; settings: inhibitor present at 100 μM; K. pneumoniae NTBC055 (VIM-1); meropenem alone 16 μg/mL
measured_property: MICMEM (meropenem MIC in presence of inhibitor) vs NTBC055 (µg/mL)
Provide the reading as a plain figure in µg/mL.

[Q] Report MICMEM (meropenem MIC in presence of inhibitor) vs NTBC055 for O=C(O)c1ncccc1NS(=O)(=O)Cc1ccc(Cl)cc1Cl please.
[A] 1

[Q] So what's the measured MICMEM (meropenem MIC in presence of inhibitor) vs NTBC055 for this one? O=C(O)c1ncccc1NS(=O)(=O)Cc1ccccc1
[A] 1

[Q] What value of MICMEM (meropenem MIC in presence of inhibitor) vs NTBC055 has been recorded for this entry: O=C(O)c1ncccc1NS(=O)(=O)Cc1cc(Cl)cc(Cl)c1
[A] 1

[Q] Find the recorded MICMEM (meropenem MIC in presence of inhibitor) vs NTBC055 belonging to O=C(O)c1ncccc1NS(=O)(=O)c1ccccc1 [Compound 32] and report it.
[A] 4

[Q] Could you share which MICMEM (meropenem MIC in presence of inhibitor) vs NTBC055 value was measured for O=C(O)c1ncsc1NS(=O)(=O)Cc1ccc(Cl)c(Cl)c1 ?
[A] 1

###

target: UniProtKB C7C422; assay: biochemical; format: biochemical; settings: NDM-1 IC50, 300 μM imipenem, 10 mM HEPES pH 7.5, 25 °C; average of at least two independent assays
pIC50: −log10 of the molar value.
Decide using pIC50: a value greater than or equal to 5 is Yes, a smaller one is No.

[Q] Record O=C(O)c1ncccc1-c1ccoc1 ; criterion: pIC50 no lower than 5. Met?
[A] No

[Q] Test whether the compound O=C(O)c1cccnn1 records pIC50 of 5 or higher.
[A] No

[Q] Can O=C(O)c1ncccc1-c1ccc(F)c(F)c1 be said to have pIC50 at or above 5?
[A] No

[Q] Decide: is the reported value of pIC50 for Cn1cnc(C(=O)O)c1 equal to or greater than 5?
[A] No

[Q] Decide: pIC50 of O=C(O)c1ncsc1NS(=O)(=O)Cc1cc(Cl)cc(Cl)c1 >= 5?
[A] Yes

[Q] Identify whether the reported pIC50 of the following compound is 5 or greater: O=C(O)c1ncccc1NS(=O)(=O)Cc1ccccc1
[A] No

[Q] Decide: is the reported value of pIC50 for O=C(O)c1cccc(-c2ccoc2)n1 equal to or greater than 5?
[A] No

[Q] Is pIC50 for O=C(O)c1ncsc1NS(=O)(=O)c1cccnc1 at or above 5?
[A] Yes

[Q] Does the reported pIC50 for O=C(O)c1ncccc1NS(=O)(=O)c1ccccc1 fall at or above the 5 mark?
[A] No

[Q] State whether the measured pIC50 reaches 5, counting equality as reaching it, for O=C(O)c1ncsc1NS(=O)(=O)c1ccncc1
[A] Yes

[Q] API: above_or_equal(metric=pIC50, cutoff=5) for item O=C(O)c1ncsc1NS(=O)(=O)Cc1ccccc1
[A] Yes

[Q] Decide: is the reported value of pIC50 for O=C(Nc1cccnc1C(=O)O)c1cocn1 equal to or greater than 5?
[A] No

[Q] Answer whether pIC50 of O=C(O)c1ccc2ccccc2n1 is greater than or equal to 5.
[A] No

[Q] Form field: pIC50 at least 5? Entry: O=C(O)c1ncsc1NS(=O)(=O)Cc1ccccc1Cl
[A] Yes

[Q] Does the compound O=C(O)c1ncccc1NS(=O)(=O)Cc1cc(Cl)cc(Cl)c1 have recorded pIC50 that is 5 or more?
[A] No

[Q] # check: pIC50 of N#Cc1cccc(CS(=O)(=O)Nc2cccnc2C(=O)O)c1 is greater than or equal to 5
[A] No

[Q] Form field: pIC50 at least 5? Entry: O=C(O)c1cnccn1
[A] No

[Q] Does the reported pIC50 for O=C(O)c1ncsc1NS(=O)(=O)c1ccccc1 fall at or above the 5 mark?
[A] Yes

[Q] Is pIC50 at least 5? Consider O=C(O)c1ncccc1NS(=O)(=O)Cc1ccc(Cl)c(Cl)c1
[A] No

###

target: VIM-1 (Pseudomonas aeruginosa, UniProt A0A0F7KYQ8); assay: biochemical; format: biochemical; settings: read-out: VIM-1 IC50; 300 μM imipenem, 10 mM HEPES pH 7.5, 25 °C; average of at least two independent assays
measured_property: IC50

[Q] Data request, read-out IC50, for O=C(O)c1ncccc1NS(=O)(=O)c1ccccc1 [Compound 61]
[A] > 200 µM
